- TARGET: Huntingtin (Homo sapiens) (UniProt P42858)
- Sequence (P42858 whole entry): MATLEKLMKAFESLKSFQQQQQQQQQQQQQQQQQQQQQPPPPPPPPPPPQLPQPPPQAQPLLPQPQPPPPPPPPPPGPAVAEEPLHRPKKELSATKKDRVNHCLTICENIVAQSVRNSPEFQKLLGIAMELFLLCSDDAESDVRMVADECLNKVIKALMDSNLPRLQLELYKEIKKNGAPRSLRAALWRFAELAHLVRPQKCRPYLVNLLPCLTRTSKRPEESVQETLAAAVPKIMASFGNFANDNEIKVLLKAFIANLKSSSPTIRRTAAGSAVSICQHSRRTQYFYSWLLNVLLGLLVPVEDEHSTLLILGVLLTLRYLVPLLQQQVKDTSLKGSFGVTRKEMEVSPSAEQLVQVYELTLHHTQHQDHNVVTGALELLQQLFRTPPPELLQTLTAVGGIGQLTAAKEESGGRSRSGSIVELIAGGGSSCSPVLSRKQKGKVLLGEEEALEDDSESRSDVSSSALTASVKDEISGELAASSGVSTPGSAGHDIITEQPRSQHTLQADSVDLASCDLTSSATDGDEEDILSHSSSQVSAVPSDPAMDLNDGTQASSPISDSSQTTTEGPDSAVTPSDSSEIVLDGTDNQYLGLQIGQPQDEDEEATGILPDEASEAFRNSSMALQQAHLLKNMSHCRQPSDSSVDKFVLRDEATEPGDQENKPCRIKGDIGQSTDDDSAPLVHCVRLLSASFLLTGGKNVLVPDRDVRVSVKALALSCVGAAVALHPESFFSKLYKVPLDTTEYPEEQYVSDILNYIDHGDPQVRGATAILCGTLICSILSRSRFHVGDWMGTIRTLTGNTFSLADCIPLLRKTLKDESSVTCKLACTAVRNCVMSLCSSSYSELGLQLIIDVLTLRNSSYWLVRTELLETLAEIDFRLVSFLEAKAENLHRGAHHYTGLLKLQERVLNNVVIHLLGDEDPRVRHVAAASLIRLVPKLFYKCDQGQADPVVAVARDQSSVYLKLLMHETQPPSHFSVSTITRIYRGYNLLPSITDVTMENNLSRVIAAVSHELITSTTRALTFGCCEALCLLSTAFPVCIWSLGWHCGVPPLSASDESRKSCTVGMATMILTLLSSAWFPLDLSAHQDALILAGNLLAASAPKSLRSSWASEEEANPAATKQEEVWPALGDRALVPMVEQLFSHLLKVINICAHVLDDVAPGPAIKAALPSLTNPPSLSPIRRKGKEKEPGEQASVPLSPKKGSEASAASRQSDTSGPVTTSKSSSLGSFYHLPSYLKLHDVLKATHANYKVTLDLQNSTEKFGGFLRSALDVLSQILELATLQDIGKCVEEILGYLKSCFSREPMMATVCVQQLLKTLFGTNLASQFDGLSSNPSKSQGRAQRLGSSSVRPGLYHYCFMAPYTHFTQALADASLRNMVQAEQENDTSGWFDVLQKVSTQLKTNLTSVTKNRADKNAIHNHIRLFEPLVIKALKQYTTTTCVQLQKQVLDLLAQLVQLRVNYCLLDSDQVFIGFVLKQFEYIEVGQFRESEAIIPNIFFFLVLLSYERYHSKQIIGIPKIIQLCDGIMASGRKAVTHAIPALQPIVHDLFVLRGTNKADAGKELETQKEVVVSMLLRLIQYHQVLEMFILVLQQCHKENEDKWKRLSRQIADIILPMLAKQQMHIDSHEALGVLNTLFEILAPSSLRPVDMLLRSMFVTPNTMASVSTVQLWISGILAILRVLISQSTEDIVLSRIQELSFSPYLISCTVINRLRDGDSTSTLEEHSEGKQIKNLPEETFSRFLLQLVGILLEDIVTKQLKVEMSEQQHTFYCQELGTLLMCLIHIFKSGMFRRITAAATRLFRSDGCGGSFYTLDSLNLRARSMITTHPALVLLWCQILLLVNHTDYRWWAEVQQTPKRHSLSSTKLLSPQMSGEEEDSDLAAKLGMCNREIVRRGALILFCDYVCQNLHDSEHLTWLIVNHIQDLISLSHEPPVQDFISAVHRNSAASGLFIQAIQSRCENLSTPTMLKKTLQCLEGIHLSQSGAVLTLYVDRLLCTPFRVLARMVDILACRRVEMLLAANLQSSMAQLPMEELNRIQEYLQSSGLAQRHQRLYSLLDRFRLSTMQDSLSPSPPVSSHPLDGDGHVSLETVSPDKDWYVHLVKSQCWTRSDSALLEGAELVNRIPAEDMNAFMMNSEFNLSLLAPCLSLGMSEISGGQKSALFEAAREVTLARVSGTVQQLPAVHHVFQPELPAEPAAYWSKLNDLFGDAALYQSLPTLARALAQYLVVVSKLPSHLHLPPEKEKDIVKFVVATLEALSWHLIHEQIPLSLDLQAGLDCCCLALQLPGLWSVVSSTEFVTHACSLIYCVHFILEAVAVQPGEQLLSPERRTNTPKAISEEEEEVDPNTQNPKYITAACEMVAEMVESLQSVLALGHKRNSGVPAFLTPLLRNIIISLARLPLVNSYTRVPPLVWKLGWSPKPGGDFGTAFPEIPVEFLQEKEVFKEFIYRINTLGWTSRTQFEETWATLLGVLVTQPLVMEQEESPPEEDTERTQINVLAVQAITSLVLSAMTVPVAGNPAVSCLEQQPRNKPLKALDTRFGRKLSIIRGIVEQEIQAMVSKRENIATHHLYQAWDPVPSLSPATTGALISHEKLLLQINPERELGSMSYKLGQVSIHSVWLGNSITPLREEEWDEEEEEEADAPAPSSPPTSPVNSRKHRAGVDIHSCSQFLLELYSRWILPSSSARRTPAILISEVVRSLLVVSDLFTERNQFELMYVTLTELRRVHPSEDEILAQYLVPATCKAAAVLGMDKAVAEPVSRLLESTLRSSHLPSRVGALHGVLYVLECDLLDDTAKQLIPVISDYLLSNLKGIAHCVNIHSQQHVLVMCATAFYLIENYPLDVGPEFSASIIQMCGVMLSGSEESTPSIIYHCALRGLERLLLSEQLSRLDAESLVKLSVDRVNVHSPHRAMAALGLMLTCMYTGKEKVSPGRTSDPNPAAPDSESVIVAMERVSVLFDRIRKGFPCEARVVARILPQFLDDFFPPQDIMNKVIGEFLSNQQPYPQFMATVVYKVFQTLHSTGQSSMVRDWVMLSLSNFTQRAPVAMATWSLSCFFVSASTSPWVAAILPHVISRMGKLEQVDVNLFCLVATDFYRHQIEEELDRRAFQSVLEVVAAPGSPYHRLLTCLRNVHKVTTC
- EXPERIMENT_NOTES: Quantitative High-Throughput Multiplex Assay to Identify Dual Action Probes in a Cell Model of Huntington: Summary. [Related pubchem assays (depositor defined):AID1471, AID1688, AID2669, AID2672, AID2673, AID2713]
- Assay type: functional
ENDPOINT_NAME: Potency

[[record]]
smiles_entry = "Cn1nnnc1Sc1ncnc2scc(-c3ccccc3F)c12"
target = "Huntingtin (Homo sapiens) (UniProt P42858)"
endpoint_name = "Potency"
value_measured = "12.6 µM (active)"


// switching to the query compound
Ask: Potency for `Cn1nnnc1Sc1ncnc2scc(-c3ccccc3C(F)(F)F)c12` ?
Reply: 25.1 µM (active)

---

- TARGET: Huntingtin (Homo sapiens) (UniProt P42858)
- EXPERIMENT_NOTES: Quantitative High-Throughput Multiplex Assay to Identify Dual Action Probes in a Cell Model of Huntington: Summary. [Related pubchem assays (depositor defined):AID1471, AID1688, AID2669, AID2672, AID2673, AID2713]
- Type: functional
ENDPOINT_NAME: Potency

[[record]]
smiles_entry = "COc1ccc(-c2csc3ncnc(Sc4nnnn4C)c23)cc1"
endpoint_name = "Potency"
value_measured = "12.6 µM (active)"

[[record]]
smiles_entry = "Cc1cccc(-c2csc3ncnc(Sc4nnnn4C)c23)c1"
endpoint_name = "Potency"
value_measured = "15.8 µM (active)"

[[record]]
smiles_entry = "Cc1ccccc1-c1csc2ncnc(Sc3nnnn3C)c12"
endpoint_name = "Potency"
value_measured = "63.1 µM (active)"

[[record]]
smiles_entry = "Cn1nnnc1Sc1ncnc2scc(-c3ccccc3)c12"
endpoint_name = "Potency"
value_measured = "8.68 µM"

[[record]]
smiles_entry = "Cn1nnnc1Sc1ncnc2scc(-c3ccc(Cl)cc3)c12"
endpoint_name = "Potency"
value_measured = "15.8 µM (active)"


Alright, here's another compound for you.
Ask: Which Potency is reported for this compound? `COc1ccccc1-c1csc2ncnc(Sc3nnnn3C)c12`
Reply: 79.4 µM (active)
